Measured log10(IC50) (UniProt P27487)
Sequence (P27487 whole entry): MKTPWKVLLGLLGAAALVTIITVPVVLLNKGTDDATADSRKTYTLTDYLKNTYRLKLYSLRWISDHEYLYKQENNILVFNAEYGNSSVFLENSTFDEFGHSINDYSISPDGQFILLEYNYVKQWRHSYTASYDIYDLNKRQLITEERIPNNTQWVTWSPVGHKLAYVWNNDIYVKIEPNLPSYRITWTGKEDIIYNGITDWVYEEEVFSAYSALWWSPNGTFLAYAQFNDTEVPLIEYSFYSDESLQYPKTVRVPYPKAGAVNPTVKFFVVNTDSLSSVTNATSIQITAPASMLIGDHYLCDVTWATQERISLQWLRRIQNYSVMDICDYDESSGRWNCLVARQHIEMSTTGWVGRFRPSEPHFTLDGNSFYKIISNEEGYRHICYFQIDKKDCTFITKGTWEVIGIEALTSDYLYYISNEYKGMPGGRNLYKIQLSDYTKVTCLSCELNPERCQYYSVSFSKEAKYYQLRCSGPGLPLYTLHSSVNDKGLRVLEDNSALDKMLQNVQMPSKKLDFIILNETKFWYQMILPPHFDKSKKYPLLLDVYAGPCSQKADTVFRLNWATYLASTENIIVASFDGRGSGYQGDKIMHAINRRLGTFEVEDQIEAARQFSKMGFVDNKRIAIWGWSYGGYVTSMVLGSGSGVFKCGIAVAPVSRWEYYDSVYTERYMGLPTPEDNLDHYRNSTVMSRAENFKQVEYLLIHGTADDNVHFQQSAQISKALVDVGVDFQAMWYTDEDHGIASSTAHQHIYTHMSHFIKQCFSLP
# log10 transformed; quantity=IC50; unit=nM

Field: example entries. Status: answers known.
compound	target.or.system	log10(IC50)
CC1=C(CC(=O)N2CCCC2C#N)C(c2ccc(F)c(F)c2)NC(=O)N1 (stereo not given)	UniProt P27487	2.42
CC1=C(C(=O)O)C(c2ccc(F)c(F)c2)N=C(N)N1C(=O)CN1CCn2c(nnc2C(F)(F)F)C1 (stereo not given)	UniProt P27487	2.06
CC1=C(C(=O)O)C(c2ccc(F)c(F)c2)N=C(N)N1C(=O)CN1Cc2cn(S(C)(=O)=O)nc2C1 (stereo not given)	UniProt P27487	0.30

// batch mode: one log10(IC50) value per listed entry
1. CC1=C(C(=O)O)C(c2ccc(F)c(F)c2)N=C(N)N1C(=O)CN1CCCC(N)C1 (stereo not given)
2. CC1=C([N+](=O)[O-])C(c2ccc(F)c(F)c2)N=C(N)N1C(=O)CN1CCn2c(nnc2C(F)(F)F)C1 (stereo not given)

[1.95, 1.93]

====

- Tested on: Rattus norvegicus
- protocol: Antihyperlipidemic effect in STZ-induced type 2 diabetes male Wistar albino rat model assessed as total cholesterol level at 10 mg/kg, po measured after 4 weeks (reference value: 227.04 +/- 4.10 mg/dL)
- Assay type: functional
experimental.readout: Activity (mg/dL)
Answers are plain numbers, in mg/dL.

molecule	unit.text	Activity
CC1=C([N+](=O)[O-])C(c2ccc(F)c(F)c2)N=C(N)N1C(=O)CN1Cc2cn(S(C)(=O)=O)nc2C1 (stereo not given)	mg/dL	153.02
CC1=C([N+](=O)[O-])C(c2ccc(F)c(F)c2)N=C(N)N1C(=O)CN1CCn2c(nnc2C(F)(F)F)C1 (stereo not given)	mg/dL	154.87
CC1=C(C(=O)O)C(c2ccc(F)c(F)c2)N=C(N)N1C(=O)CN1CCn2c(nnc2C(F)(F)F)C1 (stereo not given)	mg/dL	148.1

// batch mode: one Activity value per listed entry
1. CC1=C(C(=O)O)C(c2ccc(F)c(F)c2)N=C(N)N1C(=O)CN1CCCC(N)C1 (stereo not given)
2. CC1=C(C(=O)O)C(c2ccc(F)c(F)c2)N=C(N)N1C(=O)CN1Cc2cn(S(C)(=O)=O)nc2C1 (stereo not given)

1. 148.09
2. 152.34

====

- System: Rattus norvegicus
- protocol: Antihyperlipidemic effect in STZ-induced type 2 diabetes male Wistar albino rat model assessed as triglyceride level at 10 mg/kg, po measured after 4 weeks (reference value: 190.23 +/- 4.37 mg/dL)
- Assay type: functional
Record form. Attribute: Activity. Fill in for each entry.
Give bare numbers, in mg/dL.

Field: example entries. Status: answers known.
compound	experimental.readout	unit.text	observed.result
CC1=C(C(=O)O)C(c2ccc(F)c(F)c2)N=C(N)N1C(=O)CN1CCCC(N)C1 (stereo not given)	Activity	mg/dL	143.78
CC1=C(C(=O)O)C(c2ccc(F)c(F)c2)N=C(N)N1C(=O)CN1Cc2cn(S(C)(=O)=O)nc2C1 (stereo not given)	Activity	mg/dL	146.34
CC1=C([N+](=O)[O-])C(c2ccc(F)c(F)c2)N=C(N)N1C(=O)CN1CCn2c(nnc2C(F)(F)F)C1 (stereo not given)	Activity	mg/dL	149.76
CC1=C(C(=O)O)C(c2ccc(F)c(F)c2)N=C(N)N1C(=O)CN1CCn2c(nnc2C(F)(F)F)C1 (stereo not given)	Activity	mg/dL	141.45

Attention now turns to another entry.
Value sought: Activity, system Rattus norvegicus, item CC1=C([N+](=O)[O-])C(c2ccc(F)c(F)c2)N=C(N)N1C(=O)CN1Cc2cn(S(C)(=O)=O)nc2C1 (stereo not given) . Result: 150.32
